system: T1, recombinant human PDL1 (human, UniProt Q9NZQ7 19-238, limits assumed)
T1 construct: SPR antigen; also called CD274; B7-H1
assay-protocol: SPR
Would you mind telling me the reported koff of each entry?
Give bare numbers, in s⁻¹.

Would you mind listing koff for each of the following binders?
1. PRO3723 (scFv, anti-PDL1 scFv) scFv: DIQMTQSPASLSASVGDRVTITCQASQSIGTYLAWYQQKPGKPPKLLIYRGGILASGVPSRFSGSGSGTDFTLTISSLQPEDFATYYCQSNFYSDSTTIGPNAFGTGTKVTVLGGGGGSGGGGSGGGGSGGGGSEVQLVESGGGLVQPGGSLRLSCAASGFSFNSDYWIYWVRQAPGKGLEWIACIYGGSSGNTQYASWAQGRFTISRDNSKNTVYLQMNSLRAEDTAVYFCARGYVDYGGATDLWGQGTLVTVSS
2. PRO1392 (scFv, anti-PDL1 scFv (VL-linker-VH); also called 33-03-G02-sc18) scFv: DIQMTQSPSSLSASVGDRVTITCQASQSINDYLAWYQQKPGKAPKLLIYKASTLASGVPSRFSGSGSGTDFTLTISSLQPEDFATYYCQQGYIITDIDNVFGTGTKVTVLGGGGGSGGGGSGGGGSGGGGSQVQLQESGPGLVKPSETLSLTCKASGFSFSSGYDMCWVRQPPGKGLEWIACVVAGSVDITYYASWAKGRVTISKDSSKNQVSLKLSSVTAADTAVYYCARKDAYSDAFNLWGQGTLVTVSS
3. PRO1347 (scFv, anti-PDL1 scFv; also called 37-20-B03-sc09) scFv: DIQMTQSPASLSASVGDRVTITCQASQSIGTYLAWYQQKPGKPPKLLIYRAFILASGVPSRFSGSGSGTDFTLTISSLQPEDFATYYCQSNFYSDSTTIGPNAFGTGTKVTVLGGGGGSGGGGSGGGGSGGGGSEVQLVESGGGLVQPGGSLRLSCAASGFSFNSDYWIYWVRQAPGKGLEWIACIYGGSSGNTQYASWAQGRFTISRDNSKNTVYLQMNSLRAEDTAVYFCARGYVDYGGATDLWGQGTLVTVSS

### Response
1: 7.95e-05; 2: 4.8e-05; 3: 6.64e-05
